Where do the numbers come from? From patent US10562857B2.

This section presents molecules with their documented AUC values.
Measurement protocol: Rat pharmacokinetics
Type: in vivo
Assay context: plasma, read-out: Rat PK AUCfree
Excerpt: In vitro data of metabolic stability and protein binding as well as in vivo pharmacokinetic data for compounds of the invention can be generated using the techniques disclosed in, e.g., Obach, R. S. et al., J. Pharmacol. Exp. Ther. 283(1): 46-58 (1997), which is hereby incorporated by reference in its entirety. […]
Just the number in µM·h, nothing appended.

> print(dat)
                                   molecule  output.unit  result.value
1  CC(C)(C)CCN1C[C@@H]2[C@@H](CNC(=O)c3cc(Cl)cc(Cl)c3)[C@@H]2C1 [ML218, reference compound]         µM·h         0.007
2  CC(C)(C)NC(=O)CN1CCC(CNC(=O)c2cc(F)cc(Cl)c2)CC1 [Z944, reference compound]         µM·h          0.14

q: Identify measured AUC associated with CC(C)(C)NC(=O)CN1CCC2(CC1)CC2NC(=O)c1cc(F)cc(Cl)c1 (single isomer, unassigned)
a: 1
